Tested on: NCI-H226 lung
Assay: NCI tumour cell line growth inhibition, 48 h
# reported GI50; entries follow

{"columns": ["compound", "GI50"],
 "data": [
  ["N=C(N)CCCCCCCCC(=N)N", "15.7 µM"],
  ["S=C(Nc1ccc(Cl)cc1)Nc1ccc(Cl)cc1 (tested in a mixture with another compound)", "2.33 µM"],
  ["COc1cc(/C=C/C(=O)c2ccc(Cl)cc2)ccc1OS(=O)(=O)c1ccc(C)cc1", "12.7 µM"],
  ["CCOC(=O)Oc1c(OC)cc(C(=O)O[C@@H]2C[C@@H]3CN4CCc5c([nH]c6cc(OC)ccc56)[C@H]4C[C@@H]3[C@H](C(=O)OC)[C@H]2OC)cc1OC", "15.1 µM"],
  ["O=C(C(Br)Br)C(Br)C(Br)c1ccccc1 (centres undefined)", "3.31 µM"],
  ["O=C1c2ccccc2-c2c1c1ccccc1c(=O)n2CCNCCNCCn1c2c(c3ccccc3c1=O)C(=O)c1ccccc1-2", "0.22 µM"],
  ["O=C1CCC2(C=C(Br)C(=O)C(Br)=C2)O1", "17.6 µM"],
  ["Cc1[nH]c(/C=C2\\C(=O)Nc3ccc(F)cc32)c(C)c1C(=O)NC[C@H](O)CN1CCOCC1", "2.33 µM"],
  ["CCSc1nc(N=Cc2cccs2)c2cn[nH]c2n1", "0.299 µM"],
  ["O=C(Nc1ccc(Cl)cc1)c1cc2ccccc2cc1O", "2.59 µM"],
  ["C=C1C(=O)O[C@H]2[C@H]1CC/C(Cn1cc(-c3ccccc3)nn1)=C\\CC[C@@]1(C)O[C@@H]21", "4.6 µM"],
  ["C=C(CN1CCc2ccccc2C1)c1ccc(C(=O)Nc2ccc(N)cc2)cc1", "58.5 µM"],
  ["C/C=C(\\C)C(=O)O[C@H]1C=CC(=O)O[C@H]1CNC(=O)[C@H](C)O", "17.9 µM"],
  ["COc1cc2c(/C=C3/C(=O)Nc4ccccc43)c(Cl)n(Cc3ccccc3[N+](=O)[O-])c2cc1C", "12.7 µM"],
  ["Fc1ccc(-c2ccc(-c3nnc(-c4cc(F)c(Cl)cc4Cl)o3)o2)cc1Cl", "20.9 µM"],
  ["CCN(CC)CCOc1ccc(/C=C2\\CC3C4CC=C5C[C@@H](N6CCCC6)CC[C@]5(C)C4CC[C@]3(C)[C@H]2O)cc1OC (some centres undefined)", "19.3 µM"],
  ["CC1(C)N=C(N)N=C(N)N1c1cc(Cl)ccc1Cl", "> 100 µM"],
  ["Cc1ccc2c(N)c(C(=O)N[C@H]3CCc4cc(N5CC6CCC(C5)N6)ccc4C3)sc2n1", "0.452 µM"],
  ["S=C(Nc1ccc(Cl)cc1)Nc1ccc(-c2nc3ccccc3[nH]2)cc1", "10 µM"]
]}
